Below: a set of entries, each annotated with reported GI50.
test system: HOP-92; assay: NCI tumour cell line growth inhibition, 48 h
The source made the active and inactive calls. Rule as the data show it: active = GI50 up to about 1.1 µM and inactive = higher. Square brackets hold non-standard residues; d marks the D form. Peptide text beside a SMILES is read from it. Ac5c = NC1(C(=O)O)CCCC1

Some solved entries appear below for comparison.
# compound, result
rows = [
    ("Cc1cc(C)nc(NS(=O)(=O)c2ccc(NC(=O)c3cccc4c(Nc5ccc(S(=O)(=O)Nc6nc(C)cc(C)n6)cc5)c5ccc(Cl)cc5nc34)cc2)n1", "28 µM (inactive)"),
    ("O=C1C[C@@]23CCC4(CC2CCC[C@H]3O1)OCCO4 (stereo not given in full)", "> 100 µM (inactive)"),
    ("CCOC(=O)/C(=C/c1ccc(C(F)(F)F)cc1)N(CC)CC", "17.5 µM (inactive)"),
    ("CC1=C(C#N)c2nc3ccccc3n2C(=O)C1(C)CCO (stereo not given)", "> 100 µM (inactive)"),
]

Request: Look up GI50: NCC(=O)NC1(C(=O)O)CCCC1 (H-Gly-[Ac5c]-OH)
Response: > 100 µM (inactive)

* * *

test system: HOP-92; experiment: NCI tumour cell line growth inhibition, 48 h
The source made the active and inactive calls. No stated cut-off is given here; in the data, active = GI50 up to about 1.1 µM and inactive = higher.
Lab note: assign the record to one of 1 (active), -1 (inactive)

Example cases with answers are listed next.
# compound, label
data = [
    ("O=C(ON=c1c2ccccc2ccc2ccccc12)c1cc([N+](=O)[O-])cc([N+](=O)[O-])c1", -1),
    ("Nc1n[n+]2cc(-c3ccccc3)n(CC(=O)c3ccccc3)c2s1", -1),
    ("O=C1c2cc3c(cc2CC12Cc1ccc4c(c1C2=O)CCC4)CCC3 (stereo unspecified)", -1),
    ("CCCCCCCCCCCCCCCC(=O)OCC1OC(OC)C(NC(=O)N(CCCl)N=O)C(O)C1O (stereo unspecified)", -1),
    ("CC(C)(c1ccccc1)c1ccc(Oc2ccc(C#N)c(C#N)c2)cc1", -1),
    ("Cn1c(=S)c2nc(SCCN3C(=O)c4ccccc4C3=O)[nH]c2n(C)c1=O", -1),
    ("N#Cc1c(N)[nH]c(=S)c(C#N)c1-c1cccc(Cl)c1", -1),
    ("Nc1nc(Cl)c(/C=N\\O)c(NCC2(CO)CC(=O)C2)n1", -1),
    ("O=C1/C(=C/c2cccc(Oc3ccccc3)c2)N=C(c2ccccc2)N1c1nc2ccc(Sc3ccccc3)cc2[nH]1", -1),
    ("COC(=O)c1ccccc1C1CN=NC12Cc1c(C)c3c(c(C)c1C2=O)CCC3 (stereo unspecified)", -1),
]

Request: Hi, do you know how Cc1ccccc1CN1CC2=C(CCN(Cc3ccccc3)C2=O)N2CCN=C12 came out in this test?
Response: -1

Request: Hi, do you know how CCOC(=O)CCC1(C(=O)OC)CCCC1=O (stereo unspecified) came out in this test?
Response: -1

Request: Hi, do you know how COc1ccc(N2C(=O)C3c4[nH]c5ccccc5c4C4CCCCCCC4C3C2=O)cc1 (stereo unspecified) came out in this test?
Response: -1

Request: Hi, do you know how Cc1ccc(C(=O)OCC(C)C)cc1/N=N/N(C)C came out in this test?
Response: -1

Request: Hi, do you know how CCCC(C(=O)Nc1cccc2nc[nH]c12)C(=O)OCC (stereo unspecified) came out in this test?
Response: -1

Request: Hi, do you know how CCCCC1=NNC(=O)C1 came out in this test?
Response: -1

Request: Hi, do you know how COc1cc(CC(C)N)ccc1O (stereo unspecified) came out in this test?
Response: -1

Request: Hi, do you know how C=CCSc1nc2ccccc2c(=O)n1Cc1ccco1 came out in this test?
Response: -1

Request: Hi, do you know how Clc1ccc(Cc2nc3cc(Cl)c(Cl)cc3n2CC2CCCN3CCCCC23)cc1 (stereo unspecified) came out in this test?
Response: -1

Request: Hi, do you know how NS(=O)(=O)c1ccc(NC(=O)C2C(=O)C(=O)N(c3ccc(S(N)(=O)=O)cc3)C2=O)cc1 (stereo unspecified) came out in this test?
Response: -1
